Where do the numbers come from? From patent US20070117743A1.

- Test system: A-549
- ASSAY_REMARKS: SRB colorimetric assay of cell growth and viability, A-549
- Format: cell-based, human
- CONDITION_SUMMARY: 48 hours exposure; read-out: LC50 A-549
MEASURE_NAME: CC50

1. C/C=C1\NC(=O)[C@H](Cc2ccccc2)NC(=O)[C@@H](C(C)C)NC(=O)[C@@H]([C@@H](C)CC)NC(=O)[C@H](NC(=O)[C@H](NC(=O)[C@H](CCCN)NC(=O)[C@H]2CCCN2C(=O)[C@H](NC(=O)[C@@H](NC(=O)[C@@H](NC(=O)[C@H](NC(=O)CCCC(C)C)C(C)C)[C@@H](C)O)C(C)C)C(C)C)[C@@H](C)CC)[C@H](C)OC(=O)[C@H](C(C)C)NC1=O [Compound 2, [D-Thr^6]-KF]: ≥ 6.77 µM
2. C/C=C1\NC(=O)[C@H](Cc2ccccc2)NC(=O)[C@@H](C(C)C)NC(=O)[C@@H]([C@@H](C)CC)NC(=O)[C@H](NC(=O)[C@H](NC(=O)[C@H](CCCN)NC(=O)[C@H]2CCCN2C(=O)[C@H](NC(=O)[C@H](NC(=O)[C@@H](NC(=O)[C@H](NC(=O)CCCC(C)C)C(C)C)[C@@H](C)O)C(C)C)C(C)C)[C@@H](C)CC)[C@@H](C)OC(=O)[C@H](C(C)C)NC1=O [Compound 46, [D-Val^11]-KF]: ≥ 6.77 µM
